Reference for the values: patent US12030876B2

Molecular target: AHR (Homo sapiens)
Construct: endogenous in cells; host or cells: HepG2 (human), transfected with a DRE-luciferase reporter only
Sequence (P35869 11-848): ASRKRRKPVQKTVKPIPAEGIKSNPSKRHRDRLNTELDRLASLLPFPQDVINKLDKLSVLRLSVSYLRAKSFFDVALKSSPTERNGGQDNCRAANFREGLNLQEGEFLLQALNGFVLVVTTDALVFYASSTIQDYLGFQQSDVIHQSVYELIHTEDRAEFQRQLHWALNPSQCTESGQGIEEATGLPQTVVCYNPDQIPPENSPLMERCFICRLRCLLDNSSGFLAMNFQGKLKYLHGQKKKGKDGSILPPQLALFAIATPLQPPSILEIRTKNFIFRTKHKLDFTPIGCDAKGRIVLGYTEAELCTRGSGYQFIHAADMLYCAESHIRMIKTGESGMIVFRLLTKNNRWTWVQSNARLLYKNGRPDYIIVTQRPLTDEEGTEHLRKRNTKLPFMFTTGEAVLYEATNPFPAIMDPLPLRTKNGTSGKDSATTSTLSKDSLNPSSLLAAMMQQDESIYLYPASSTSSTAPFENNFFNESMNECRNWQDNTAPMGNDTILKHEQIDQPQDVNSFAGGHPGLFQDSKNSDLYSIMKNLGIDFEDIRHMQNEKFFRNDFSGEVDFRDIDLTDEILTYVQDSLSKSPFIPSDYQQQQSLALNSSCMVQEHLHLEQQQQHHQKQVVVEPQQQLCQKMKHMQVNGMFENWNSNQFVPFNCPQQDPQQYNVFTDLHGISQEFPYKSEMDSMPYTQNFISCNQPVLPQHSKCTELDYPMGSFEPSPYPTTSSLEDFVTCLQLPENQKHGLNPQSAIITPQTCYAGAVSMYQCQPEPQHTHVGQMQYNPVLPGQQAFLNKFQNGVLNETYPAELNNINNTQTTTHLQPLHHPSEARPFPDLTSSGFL
Experiment: DRE-Luciferase Reporter Assay, HepG2 (agonist)
Format: cell-based
Settings: HepG2, Table 3; read-out: DRE-Luc HepG2 - Agonist: Average EC50
endpoint.label: EC50

# chem.smiles, value.observed
data = [
    ("N#Cc1cccc(-n2cnc(Nc3cccc(C(F)(F)F)c3)n2)c1", "< 10 nM"),
    ("C[n+]1cccc(-c2csc(Nc3cccc(C(F)(F)F)c3)n2)c1", "< 10 nM"),
    ("[O-][n+]1cccc(-c2csc(Nc3ccc(C(F)(F)F)cc3)n2)c1", "100 to 1000 nM"),
    ("COC(=O)c1cncc(-c2csc(Nc3cccc(C(F)(F)F)c3)n2)c1", "> 1000 nM"),
    ("FC(F)(F)c1cccc(Nc2nc(-c3cncc(NNc4cncc(-c5csc(Nc6cccc(C(F)(F)F)c6)n5)c4)c3)cs2)c1", "100 to 1000 nM"),
    ("N#Cc1cccc(-c2nsc(Nc3cccc(C(F)(F)F)c3)n2)c1", "< 10 nM"),
    ("N#Cc1cccc(-c2cc(Nc3cccc(C(F)(F)F)c3)on2)c1", "> 1000 nM"),
    ("[O-][n+]1cccc(-c2csc(Nc3cccc(C(F)(F)F)n3)n2)c1", "< 10 nM"),
    ("COC(=O)c1cccc(-c2csc(Nc3cccc(C(F)(F)F)c3)n2)c1", "100 to 1000 nM"),
]

###

In this section, each of the compounds is paired with its reported pEC50.
molecular target: AHR (Mus musculus); experiment: P450 CYP1A1 Luciferase Assay, Hepa1.6 (agonist); type: cell-based, murine; settings: Hepa1.6, Table 2
Sequence (P30561 whole entry F348L/P471L, form open): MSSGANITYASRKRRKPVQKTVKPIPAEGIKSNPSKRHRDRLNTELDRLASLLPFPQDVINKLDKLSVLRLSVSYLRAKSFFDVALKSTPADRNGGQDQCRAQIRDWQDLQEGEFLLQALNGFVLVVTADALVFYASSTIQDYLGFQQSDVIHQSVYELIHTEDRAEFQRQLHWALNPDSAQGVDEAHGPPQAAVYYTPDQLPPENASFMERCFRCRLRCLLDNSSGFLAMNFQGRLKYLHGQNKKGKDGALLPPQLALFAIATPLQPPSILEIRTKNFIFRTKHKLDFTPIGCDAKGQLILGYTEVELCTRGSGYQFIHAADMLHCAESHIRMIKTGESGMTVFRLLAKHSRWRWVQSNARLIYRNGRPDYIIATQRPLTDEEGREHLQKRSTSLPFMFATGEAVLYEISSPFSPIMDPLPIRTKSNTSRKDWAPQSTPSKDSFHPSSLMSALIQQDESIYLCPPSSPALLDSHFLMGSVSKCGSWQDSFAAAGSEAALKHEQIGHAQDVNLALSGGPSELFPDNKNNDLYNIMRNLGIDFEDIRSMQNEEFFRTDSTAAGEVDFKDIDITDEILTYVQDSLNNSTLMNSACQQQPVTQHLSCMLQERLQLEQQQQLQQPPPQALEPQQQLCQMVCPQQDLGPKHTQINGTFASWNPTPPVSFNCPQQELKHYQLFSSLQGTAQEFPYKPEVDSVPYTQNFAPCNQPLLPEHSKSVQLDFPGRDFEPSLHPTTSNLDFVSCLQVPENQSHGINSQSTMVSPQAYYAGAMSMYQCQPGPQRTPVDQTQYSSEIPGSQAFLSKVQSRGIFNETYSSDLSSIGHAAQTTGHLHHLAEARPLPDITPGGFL
pEC50: −log10 of the molar value.

# chem.smiles, target.or.system, pEC50
rows = [
    ("C[N+](C)(CO)CCNC(=O)N(c1cccc(C(F)(F)F)c1)c1nc(-c2cccc(C#N)c2)cs1", "AHR (Mus musculus)", "6.00 to 7.00"),
    ("FC(F)(F)c1cccc(Nc2nc(-c3ccccc3Cl)cs2)c1", "AHR (Mus musculus)", "< 6.00"),
    ("Clc1cccc(-c2csc(Nc3ccccc3)n2)c1", "AHR (Mus musculus)", "< 6.00"),
    ("FC(F)(F)c1ccc(Nc2nc(-c3cccc(Cl)c3)cs2)cc1", "AHR (Mus musculus)", "< 6.00"),
    ("FC(F)(F)Oc1cccc(-c2csc(Nc3cccc(C(F)(F)F)c3)n2)c1", "AHR (Mus musculus)", "< 6.00"),
    ("Clc1cccc(-c2csc(Nc3cccnc3)n2)c1", "AHR (Mus musculus)", "< 6.00"),
    ("FC(F)(F)Oc1cccc(Nc2nc(-c3cccc(Cl)c3)cs2)c1", "AHR (Mus musculus)", "< 6.00"),
    ("C[N+](C)(C)CCNC(=O)Nc1cccc(-c2csc(Nc3cccc(C(F)(F)F)c3)n2)c1", "AHR (Mus musculus)", "< 6.00"),
    ("Clc1cccc(-c2csc(Nc3ccccn3)n2)c1", "AHR (Mus musculus)", "< 6.00"),
    ("[O-][n+]1cccc(-c2csc(Nc3cccc(C(F)(F)F)c3)n2)c1", "AHR (Mus musculus)", "7.00 to 8.00"),
    ("Cc1sc(Nc2cccc(C(F)(F)F)c2)nc1-c1cccc(Cl)c1", "AHR (Mus musculus)", "< 6.00"),
    ("CN(C)c1cccc(-c2csc(Nc3cccc(C(F)(F)F)c3)n2)c1", "AHR (Mus musculus)", "6.00 to 7.00"),
    ("FC(F)(F)c1cccc(Nc2nc(-c3ccccn3)cs2)c1", "AHR (Mus musculus)", "< 6.00"),
    ("NC(=O)c1cncc(-c2csc(Nc3cccc(C(F)(F)F)c3)n2)c1", "AHR (Mus musculus)", "6.00 to 7.00"),
    ("FC(F)(F)c1cccc(Nc2nc(-c3cccc(Cl)c3)cs2)n1", "AHR (Mus musculus)", "< 6.00"),
    ("Nc1cccc(-c2csc(Nc3cccc(C(F)(F)F)c3)n2)c1", "AHR (Mus musculus)", "6.00 to 7.00"),
    ("C[N+](C)(CCO)CCNC(=O)N(c1cccc(C(F)(F)F)c1)c1nc(-c2cccc(Cl)c2)cs1", "AHR (Mus musculus)", "6.00 to 7.00"),
    ("C[N+](C)(CCO)CCNC(=O)N(c1cccc(C(F)(F)F)c1)c1nc(-c2cccc([N+](=O)[O-])c2)cs1", "AHR (Mus musculus)", "7.00 to 8.00"),
    ("O=[N+]([O-])c1ccc(-c2csc(Nc3cccc(C(F)(F)F)c3)n2)cc1", "AHR (Mus musculus)", "< 6.00"),
]

###

target: AHR (Homo sapiens, UniProt P35869); construct: endogenous in cells; host or cells: HepG2 (human), transfected with a DRE-luciferase reporter only; test: DRE-Luciferase Reporter Assay, HepG2 (agonist); type: cell-based; conditions: HepG2, Table 3; read-out: DRE-Luc HepG2 - Agonist: Average EC50
Reported EC50 values follow for various compounds

# compound, EC50
records = [
    ("N#Cc1cc(-c2csc(Nc3cccc(C(F)(F)F)c3)n2)cc([N+](=O)[O-])c1 [I-115]", "> 1000 nM"),
    ("O=c1cc(-c2cc(Nc3cccc(C(F)(F)F)c3)on2)cc[nH]1 [I-137]", "> 1000 nM"),
    ("N#Cc1cc(C(=O)O)cc(-c2csc(Nc3cccc(C(F)(F)F)c3)n2)c1 [I-95]", "> 1000 nM"),
    ("CSc1cccc(-c2csc(Nc3cccc(C(F)(F)F)c3)n2)c1 [I-132]", "> 1000 nM"),
    ("CSc1cccc(Nc2nc(-c3cccc([N+](=O)[O-])c3)cs2)c1 [I-136]", "< 10 nM"),
    ("N#Cc1cccc(-c2coc(Nc3cccc(C(F)(F)F)c3)n2)c1 [I-124]", "> 1000 nM"),
    ("Nc1cncc(-c2csc(Nc3cccc(C(F)(F)F)c3)n2)c1 [I-164]", "< 10 nM"),
    ("NC(=O)c1cc(-c2csc(Nc3cccc(C(F)(F)F)c3)n2)cc([N+](=O)[O-])c1 [I-101]", "> 1000 nM"),
    ("Nc1cc(-c2csc(Nc3cccc(C(F)(F)F)c3)n2)ccc1F [I-163]", "< 10 nM"),
    ("[O-][n+]1cccc(-c2csc(Nc3cncc(C(F)(F)F)c3)n2)c1 [I-122]", "> 1000 nM"),
    ("Nc1ccc(F)c(-c2csc(Nc3cccc(C(F)(F)F)c3)n2)c1 [I-166]", "< 10 nM"),
    ("C[N+](C)(C)CCOc1cc(-c2csc(Nc3cccc(C(F)(F)F)c3)n2)ccn1 [I-149]", "100 to 1000 nM"),
    ("[O-][n+]1ccccc1-c1csc(Nc2cccc(C(F)(F)F)c2)n1 [I-94]", "> 1000 nM"),
    ("O=C(O)c1cc(/N=N/c2cccc(-c3csc(Nc4cccc(C(F)(F)F)c4)n3)c2)ccc1O [I-162]", "> 1000 nM"),
    ("Nc1cc(-c2csc(Nc3cccc(C(F)(F)F)c3)n2)ccn1 [I-156]", "< 10 nM"),
    ("NC(=O)c1cc(-c2csc(Nc3cccc(C(F)(F)F)c3)n2)c[n+]([O-])c1 [I-99]", "> 1000 nM"),
    ("COc1cc(-c2csc(Nc3cccc(SC)c3)n2)ccn1 [I-141]", "> 1000 nM"),
    ("O=c1cc(-c2cnc(Nc3cccc(C(F)(F)F)c3)o2)cc[nH]1 [I-126]", "> 1000 nM"),
    ("N#Cc1cccc(-c2cc(Nc3cccc(C(F)(F)F)c3)no2)c1 [I-151]", "> 1000 nM"),
    ("O=C(O)c1cccc(/N=N/c2cccc(-c3csc(Nc4cccc(C(F)(F)F)c4)n3)c2)c1 [I-161]", "100 to 1000 nM"),
    ("O=C(O)c1cc(/N=N/c2cccc(-c3csc(Nc4cccc(C(F)(F)F)c4)n3)c2)cc(C(=O)O)c1 [I-176]", "> 1000 nM"),
    ("[O-][n+]1cc(Cl)cc(-c2csc(Nc3cccc(C(F)(F)F)c3)n2)c1 [I-107]", "< 10 nM"),
    ("[O-][n+]1cccc(-n2cnc(Nc3cccc(C(F)(F)F)c3)n2)c1 [I-158]", "10 to 100 nM"),
    ("N#Cc1cccc(-c2cnc(Nc3cccc(C(F)(F)F)c3)o2)c1 [I-112]", "< 10 nM"),
    ("NC(=O)c1cccc(Nc2nc(-c3ccc[n+]([O-])c3)cs2)c1 [I-147]", "100 to 1000 nM"),
    ("N#Cc1cc(Cl)cc(-c2csc(Nc3cccc(C(F)(F)F)c3)n2)c1 [I-80]", "10 to 100 nM"),
    ("C[N+](C)(C)CCNC(=O)N(c1cccc(C(F)(F)F)c1)c1nc(-c2cc[nH]c(=O)c2)cs1 [I-146]", "< 10 nM"),
    ("N#Cc1cccc(-c2csc(Nc3cncc(C(F)(F)F)c3)n2)c1 [I-97]", "< 10 nM"),
    ("FC(F)(F)c1cccc(Nc2nc(-c3cncc(Cl)c3)cs2)c1 [I-91]", "< 10 nM"),
    ("N#Cc1cncc(-c2csc(Nc3cccc(C(F)(F)F)c3)n2)c1 [I-87]", "< 10 nM"),
    ("O=C(O)c1cncc(-c2csc(Nc3cccc(C(F)(F)F)c3)n2)c1 [I-79]", "> 1000 nM"),
    ("O=C(O)c1cc(/N=N/c2ccc(F)c(-c3csc(Nc4cccc(C(F)(F)F)c4)n3)c2)ccc1O [I-179]", "100 to 1000 nM"),
    ("O=c1cc(-c2nc(Nc3cccc(C(F)(F)F)c3)no2)cc[nH]1 [I-133]", "100 to 1000 nM"),
    ("O=c1cc(-c2csc(Nc3cccc(C(F)(F)F)c3)n2)cc[nH]1 [I-93]", "< 10 nM"),
    ("O=C(O)c1cc(/N=N/c2cc(-c3csc(Nc4cccc(C(F)(F)F)c4)n3)ccc2F)ccc1O [I-178]", "> 1000 nM"),
    ("CN(CCNC(=O)N(c1cccc(C(F)(F)F)c1)c1nc(-c2cccc(Cl)c2)cs1)CC(=O)O [I-86]", "< 10 nM"),
    ("O=c1cc(-c2noc(Nc3cccc(C(F)(F)F)c3)n2)cc[nH]1 [I-135]", "> 1000 nM"),
]
